Numbers sourced from patent US20220048944A1.

# TEST SYSTEM: SARS-CoV-2 3CL-protease (Severe acute respiratory syndrome coronavirus 2)
# EXPERIMENT DESCRIPTION: SARS-CoV-2 3C-like (3CL) protease fluorescence assay (FRET)
# CONDITION NOTES: recombinant SARS-CoV-2 3CL-protease 10 nM, TAMRA-[…]-Dabcyl-OH substrate, 30 min preincubation at RT, run in duplicate
Below, each entry is listed alongside its reported IC50.
METRIC NAME: IC50

{"CHEMICAL STRUCTURE": "COc1cccc2[nH]c(C(=O)N[C@@H](CC(C)C)C(=O)N[C@H](C#N)C[C@@H]3CCCNC3=O)cc12", "VALUE": "< 100 nM"}
{"CHEMICAL STRUCTURE": "COc1cccc2[nH]c(C(=O)N[C@@H](CSC)C(=O)N[C@H](C#N)C[C@@H]3CCNC3=O)cc12", "VALUE": "100 to 1000 nM"}
{"CHEMICAL STRUCTURE": "CC(C)C[C@H](NC(=O)c1cc2ccccc2[nH]1)C(=O)N[C@H](C#N)C[C@@H]1CCNC1=O", "VALUE": "100 to 1000 nM"}
